# Assay Target: Torsin-1A (Homo sapiens) (UniProt O14656)
# Sequence (O14656 whole entry, looked up): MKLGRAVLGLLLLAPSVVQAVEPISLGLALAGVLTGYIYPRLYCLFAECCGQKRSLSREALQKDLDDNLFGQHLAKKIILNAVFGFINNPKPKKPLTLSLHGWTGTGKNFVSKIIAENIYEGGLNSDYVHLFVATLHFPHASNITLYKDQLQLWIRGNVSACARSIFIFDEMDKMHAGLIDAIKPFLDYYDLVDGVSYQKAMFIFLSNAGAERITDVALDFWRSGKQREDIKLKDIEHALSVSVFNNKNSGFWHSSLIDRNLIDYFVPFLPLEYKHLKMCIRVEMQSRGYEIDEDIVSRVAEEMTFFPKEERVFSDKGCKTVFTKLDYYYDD
# Assay Summary: small-molecule binders of mutant TOR1A in lysate, primary screen, cell lysate, small-molecule microarray, COS7 lysate, 635/667 nm fluorescence (AID 1150);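 further: score pools 667 nm emission and signal to noise measuring lysate protein binding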
# Study Conditions: COS7 hTOR1A mutant lysate, 635 nm fluorescence, higher = more signal
Readout Label: composite z-score

# count of solved cases: 3
{"Line Notation": "O=C(NN=C1C[C@@H](O)[C@@H](O)[C@@H]2[C@@H]3C(=O)N(c4ccc(F)cc4F)C(=O)[C@@H]3CC[C@@H]12)OCc1ccccc1", "Readout Label": "composite z-score", "Observed Measurement": 0.464}
{"Line Notation": "O=C1C[C@]2(c3ccc([N+](=O)[O-])cc3)C(=O)N(CCN3CCOCC3)c3cc(CO)ccc3[C@H]2N1CC12CC3CC(CC(C3)C1)C2", "Readout Label": "composite z-score", "Observed Measurement": -0.862}
{"Line Notation": "COCCOC(=O)N1C(=O)[C@@]2(c3cc(C#CC4(O)CCCCCC4)ccc31)[C@H](c1ccc(OCCO)cc1)N1[C@H](c3ccccc3)[C@H](c3ccccc3)OC(=O)[C@H]1[C@@H]2C(=O)NC[C@H](O)c1ccccc1", "Readout Label": "composite z-score", "Observed Measurement": 0.514}

// next item, composite z-score requested
// returns reported composite z-score for input "CN1C(=O)[C@@]2(CCC(=O)OC(C)(C)C)N=C(c3ccc(OCCCO)cc3)O[C@H]2c2ccccc21"
0.43
